Tested on: Escherichia coli
ASSAY NOTES: Antimicrobial activity against Escherichia coli W3110 after 18 to 20 hrs by broth microdilution
Assay type: functional
STUDY CONDITIONS: K-12 substr. W3110
ATTRIBUTE MEASURED: MIC90 (µg/mL)

1. COc1ccc2ncc(=O)n(CC(N)C3(F)CCC(NCc4ccc5c(n4)NC(=O)CO5)CC3)c2c1 (racemic) ... 2
2. COc1cnc2ccc(=O)n(C[C@H](N)[C@H]3CC[C@H](NCc4ccc5c(n4)NC(=O)CO5)CC3)c2c1 ... 0.5
3. COc1cc2c(cc1F)ncc(=O)n2C[C@H](N)[C@H]1CC[C@H](NCc2ncc3c(n2)NC(=O)CO3)CC1 ... 2
4. Cc1cc(=O)n(C[C@H](N)[C@H]2CC[C@H](NCc3ncc4c(n3)NC(=O)CO4)CC2)c2cc(F)ccc12 ... 0.5

---

ASSAY NOTES: AUC in beagle dog at 10 mg/kg, iv
Assay type: ADME, organism-based, Canis lupus familiaris
Parameters: dose 10 mg/kg, route intravenous
STUDY CONDITIONS: plasma
The following molecules are listed with their measured AUC values.
ATTRIBUTE MEASURED: AUC (ng·h/mL)

1) N[C@@H](Cn1c(=O)cnc2ccc(F)cc21)[C@H]1CC[C@H](NCc2ncc3c(n2)NC(=O)CO3)CC1 ... 12000
2) COc1ccc2ncc(=O)n(CCN3CCC(NCc4ccc5c(n4)NC(=O)CO5)CC3)c2c1 ... 6800
3) COc1cnc2ccc(=O)n(C[C@H](N)[C@H]3CC[C@H](NCc4ccc5c(n4)NC(=O)CO5)CC3)c2c1 ... 3800

---

Test system: Staphylococcus aureus
ASSAY NOTES: Antimicrobial activity against methicillin-susceptible Staphylococcus aureus after 18 to 20 hrs by broth microdilution
Type: functional
ATTRIBUTE MEASURED: MIC90 (µg/mL)

1. COc1ccc2ncc(=O)n(C[C@H](N)[C@H]3CC[C@H](NCc4ccc5c(n4)NC(=O)CO5)CC3)c2c1 ... 1
2. COc1ccc2ncc(=O)n(CCN3CCC(NCc4ccc5c(n4)NC(=O)CO5)CC3)c2c1 ... 0.03
3. COc1ccc2ncc(=O)n(C[C@H](N)[C@H]3CC[C@H](NCc4ncc5c(n4)NC(=O)CO5)CC3)c2c1 ... 1
4. Cc1cc(=O)n(C[C@H](N)[C@H]2CC[C@H](NCc3ccc4c(n3)NC(=O)CO4)CC2)c2cc(F)ccc12 ... 1
5. COc1ccc2ncc(=O)n(CC[C@]3(N)CC[C@H](NCc4ccc5c(n4)NC(=O)CO5)CC3)c2c1 ... 2
6. N[C@@H](Cn1c(=O)cnc2ccc(F)cc21)[C@H]1CC[C@H](NCc2ncc3c(n2)NC(=O)CO3)CC1 ... 1
7. COc1cc2c(cc1F)ncc(=O)n2C[C@H](N)[C@H]1CC[C@H](NCc2ncc3c(n2)NC(=O)CO3)CC1 ... 4
8. CNC(Cn1c(=O)cnc2cc(F)c(OC)cc21)[C@H]1CC[C@H](NCc2ncc3c(n2)NC(=O)CO3)CC1 (mixture of isomers) ... 64

---

The following compounds are listed with their measured pIC50 values.
TARGET SYSTEM: Potassium/sodium hyperpolarization-activated cyclic nucleotide-gated channel 4 (Homo sapiens)
Sequence (Q9Y3Q4 whole entry): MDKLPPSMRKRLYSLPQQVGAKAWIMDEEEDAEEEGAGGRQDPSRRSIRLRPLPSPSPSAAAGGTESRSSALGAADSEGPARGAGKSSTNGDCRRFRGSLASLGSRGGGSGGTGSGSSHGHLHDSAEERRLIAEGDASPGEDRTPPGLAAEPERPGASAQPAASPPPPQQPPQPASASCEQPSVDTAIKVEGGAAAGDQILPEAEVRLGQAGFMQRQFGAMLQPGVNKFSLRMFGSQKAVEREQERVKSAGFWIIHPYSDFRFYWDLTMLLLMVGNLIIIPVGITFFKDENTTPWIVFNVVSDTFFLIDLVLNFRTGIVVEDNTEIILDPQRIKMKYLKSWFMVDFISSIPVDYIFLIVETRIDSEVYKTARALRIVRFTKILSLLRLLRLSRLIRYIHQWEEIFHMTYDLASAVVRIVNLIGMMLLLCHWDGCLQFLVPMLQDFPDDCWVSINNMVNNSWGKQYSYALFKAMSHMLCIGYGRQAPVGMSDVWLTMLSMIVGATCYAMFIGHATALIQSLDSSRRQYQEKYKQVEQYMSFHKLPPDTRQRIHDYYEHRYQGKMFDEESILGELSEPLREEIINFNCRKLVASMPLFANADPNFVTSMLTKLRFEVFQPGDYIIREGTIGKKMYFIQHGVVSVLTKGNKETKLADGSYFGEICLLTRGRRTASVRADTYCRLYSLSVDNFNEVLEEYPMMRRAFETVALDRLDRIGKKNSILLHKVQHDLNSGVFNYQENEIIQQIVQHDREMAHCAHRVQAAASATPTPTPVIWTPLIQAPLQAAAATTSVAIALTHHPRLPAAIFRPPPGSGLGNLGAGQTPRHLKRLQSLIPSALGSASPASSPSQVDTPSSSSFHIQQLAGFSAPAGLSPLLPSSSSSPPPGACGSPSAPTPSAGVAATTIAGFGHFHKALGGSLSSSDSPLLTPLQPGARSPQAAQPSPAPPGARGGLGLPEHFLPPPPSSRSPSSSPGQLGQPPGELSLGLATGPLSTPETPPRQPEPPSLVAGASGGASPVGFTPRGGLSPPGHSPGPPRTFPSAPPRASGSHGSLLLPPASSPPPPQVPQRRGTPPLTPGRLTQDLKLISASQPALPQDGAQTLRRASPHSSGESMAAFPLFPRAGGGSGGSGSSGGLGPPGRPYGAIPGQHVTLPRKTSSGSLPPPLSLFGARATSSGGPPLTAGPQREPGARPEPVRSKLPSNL
ASSAY NOTES: Inhibition of potassium channel HCN4 (unknown origin)
pIC50: −log10 of the molar value.
ATTRIBUTE MEASURED: pIC50

1) N[C@@H](Cn1c(=O)cnc2ccc(F)cc21)[C@H]1CC[C@H](NCc2ncc3c(n2)NC(=O)CO3)CC1 ... < 4.00
2) COc1ccc2ncc(=O)n(CCN3CCC(NCc4ccc5c(n4)NC(=O)CO5)CC3)c2c1 ... < 4.00

---

ASSAY NOTES: Volume of distribution in rat at 10 mg/kg, iv
Format: ADME, organism-based
Design: dose 10 mg/kg, route intravenous
STUDY CONDITIONS: in vivo
ATTRIBUTE MEASURED: Vd (L/kg)

1) N[C@@H](Cn1c(=O)cnc2ccc(F)cc21)[C@H]1CC[C@H](NCc2ncc3c(n2)NC(=O)CO3)CC1 ... 9
2) COc1cnc2ccc(=O)n(C[C@H](N)[C@H]3CC[C@H](NCc4ccc5c(n4)NC(=O)CO5)CC3)c2c1 ... 13
3) COc1ccc2ncc(=O)n(CCN3CCC(NCc4ccc5c(n4)NC(=O)CO5)CC3)c2c1 ... 23

---

TARGET SYSTEM: Potassium voltage-gated channel subfamily KQT member 1 (Homo sapiens, UniProt P51787)
Sequence (P51787 whole entry): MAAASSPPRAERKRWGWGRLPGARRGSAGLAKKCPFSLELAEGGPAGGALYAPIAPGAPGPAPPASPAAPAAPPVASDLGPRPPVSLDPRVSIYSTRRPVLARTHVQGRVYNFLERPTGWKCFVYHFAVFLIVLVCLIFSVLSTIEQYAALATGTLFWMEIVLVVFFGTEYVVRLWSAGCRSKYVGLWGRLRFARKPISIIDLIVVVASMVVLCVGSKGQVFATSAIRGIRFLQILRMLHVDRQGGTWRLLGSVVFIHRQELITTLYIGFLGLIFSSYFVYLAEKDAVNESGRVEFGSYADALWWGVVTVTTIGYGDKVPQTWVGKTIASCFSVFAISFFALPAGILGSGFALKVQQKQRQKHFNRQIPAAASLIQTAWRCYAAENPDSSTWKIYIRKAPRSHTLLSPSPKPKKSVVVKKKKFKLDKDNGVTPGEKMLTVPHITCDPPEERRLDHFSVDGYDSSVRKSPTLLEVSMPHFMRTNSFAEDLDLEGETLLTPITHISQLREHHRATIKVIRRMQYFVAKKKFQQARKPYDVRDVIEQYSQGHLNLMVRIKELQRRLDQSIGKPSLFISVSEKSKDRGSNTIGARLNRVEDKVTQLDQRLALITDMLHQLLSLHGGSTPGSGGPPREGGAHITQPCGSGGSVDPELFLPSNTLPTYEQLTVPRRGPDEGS
ATTRIBUTE MEASURED: IC50

1) N[C@@H](Cn1c(=O)cnc2ccc(F)cc21)[C@H]1CC[C@H](NCc2ncc3c(n2)NC(=O)CO3)CC1 ... > 333 µM

---

ASSAY NOTES: Volume of distribution in beagle dog at 10 mg/kg, iv
Format: ADME, organism-based, Canis lupus familiaris
Set-up: dose 10 mg/kg, route intravenous
STUDY CONDITIONS: in vivo
The following molecules are listed with their measured Vd values.
ATTRIBUTE MEASURED: Vd (L/kg)

1. COc1ccc2ncc(=O)n(CCN3CCC(NCc4ccc5c(n4)NC(=O)CO5)CC3)c2c1 ... 2
2. COc1cnc2ccc(=O)n(C[C@H](N)[C@H]3CC[C@H](NCc4ccc5c(n4)NC(=O)CO5)CC3)c2c1 ... 2.7
3. N[C@@H](Cn1c(=O)cnc2ccc(F)cc21)[C@H]1CC[C@H](NCc2ncc3c(n2)NC(=O)CO3)CC1 ... 4

---

ASSAY NOTES: Partition co-efficient, log D of the compound at pH 7.4 by shake flask method
Format: physicochemical
STUDY CONDITIONS: buffer
ATTRIBUTE MEASURED: logD

1) COc1cnc2ccc(=O)n(C[C@@H](N)[C@H]3CC[C@H](NCc4ccc5c(n4)NC(=O)CO5)CC3)c2c1 ... -0.84
2) COc1ccc2ncc(=O)n(CC(N)C3(F)CCC(NCc4ccc5c(n4)NC(=O)CO5)CC3)c2c1 (racemic) ... 0.25
3) Cc1cc(=O)n(C[C@H](N)[C@H]2CC[C@H](NCc3ccc4c(n3)NC(=O)CO4)CC2)c2cc(F)ccc12 ... -0.05
4) Cc1cc(=O)n(C[C@H](N)[C@H]2CC[C@H](NCc3ncc4c(n3)NC(=O)CO4)CC2)c2cc(F)ccc12 ... 0.06
5) N[C@@H](Cn1c(=O)cnc2ccc(F)cc21)[C@H]1CC[C@H](NCc2ccc3c(n2)NC(=O)CO3)CC1 ... -0.41
6) COc1ccc2ccc(=O)n(C[C@H](N)[C@H]3CC[C@H](NCc4ncc5c(n4)NC(=O)CO5)CC3)c2c1 ... -0.54
7) N[C@@H](Cn1c(=O)ccc2ncc(F)cc21)[C@H]1CC[C@H](NCc2ccc3c(n2)NC(=O)CO3)CC1 ... -1.02
8) COc1ccc2ncc(=O)n(C[C@H](N)[C@H]3CC[C@H](NCc4ncc5c(n4)NC(=O)CO5)CC3)c2c1 ... -0.48
9) COc1ccc2ncc(=O)n(C[C@H](N)[C@H]3CC[C@H](NCc4ccc5c(n4)NC(=O)CO5)CC3)c2c1 ... -0.36
10) COc1cnc2ccc(=O)n(C[C@H](N)[C@H]3CC[C@H](NCc4ccc5c(n4)NC(=O)CO5)CC3)c2c1 ... -0.86
